Tested on: Staphylococcus aureus
method: Antibacterial activity against methicillin-resistant Staphylococcus aureus A960649 at 6.25 uM after 15 to 20 hrs by CLSI protocol based microdilution assay relative to control
Assay type: functional

{"cpd smiles": "NC[C@@H]1O[C@H](O[C@H]2[C@@H](O)[C@H](O[C@@H]3[C@@H](O)[C@H](N)C[C@H](N)[C@H]3O[C@H]3O[C@H](CN)[C@@H](O)[C@H](O)[C@H]3N)O[C@@H]2CNC(=O)CCc2ccc3ccc4cccc5ccc2c3c45)[C@H](N)[C@@H](O)[C@@H]1O", "target or test system": "Staphylococcus aureus", "Activity [%]": 16}
{"cpd smiles": "NC[C@@H]1O[C@H](O[C@H]2[C@@H](O)[C@H](O[C@@H]3[C@@H](O)[C@H](N)C[C@H](N)[C@H]3O[C@H]3O[C@H](CN)[C@@H](O)[C@H](O)[C@H]3N)O[C@@H]2CSCCNC(=O)Cc2ccc3ccc4cccc5ccc2c3c45)[C@H](N)[C@@H](O)[C@@H]1O", "target or test system": "Staphylococcus aureus", "Activity [%]": 7}
{"cpd smiles": "NC[C@@H]1O[C@H](O[C@H]2[C@@H](O)[C@H](O[C@@H]3[C@@H](O)[C@H](N)C[C@H](N)[C@H]3O[C@H]3O[C@H](CN)[C@@H](O)[C@H](O)[C@H]3N)O[C@@H]2CSCCNC(=S)NCCCCCCNC(=O)CCCc2ccc3ccc4cccc5ccc2c3c45)[C@H](N)[C@@H](O)[C@@H]1O", "target or test system": "Staphylococcus aureus", "Activity [%]": 87}

----------
Reported Activity values for the following compounds.
Tested on: Staphylococcus epidermidis
method: Antibacterial activity against NEO-sensitive Staphylococcus epidermidis 12384 at 6.25 uM after 15 to 20 hrs by CLSI protocol based microdilution assay relative to control
Format: functional

{"cpd smiles": "NC[C@@H]1O[C@H](O[C@H]2[C@@H](O)[C@H](O[C@@H]3[C@@H](O)[C@H](N)C[C@H](N)[C@H]3O[C@H]3O[C@H](CN)[C@@H](O)[C@H](O)[C@H]3N)O[C@@H]2CNC(=O)CCc2ccc3ccc4cccc5ccc2c3c45)[C@H](N)[C@@H](O)[C@@H]1O", "reading unit": "%", "Activity": 10}
{"cpd smiles": "NC[C@@H]1O[C@H](O[C@H]2[C@@H](O)[C@H](O[C@@H]3[C@@H](O)[C@H](N)C[C@H](N)[C@H]3O[C@H]3O[C@H](CN)[C@@H](O)[C@H](O)[C@H]3N)O[C@@H]2CNC(=O)CCCc2ccc3ccc4cccc5ccc2c3c45)[C@H](N)[C@@H](O)[C@@H]1O", "reading unit": "%", "Activity": 80}
{"cpd smiles": "NC[C@@H]1O[C@H](O[C@H]2[C@@H](O)[C@H](O[C@@H]3[C@@H](O)[C@H](N)C[C@H](N)[C@H]3O[C@H]3O[C@H](CN)[C@@H](O)[C@H](O)[C@H]3N)O[C@@H]2CSCCNC(=O)CCc2ccc3ccc4cccc5ccc2c3c45)[C@H](N)[C@@H](O)[C@@H]1O", "reading unit": "%", "Activity": 56}
{"cpd smiles": "NC[C@@H]1O[C@H](O[C@H]2[C@@H](O)[C@H](O[C@@H]3[C@@H](O)[C@H](N)C[C@H](N)[C@H]3O[C@H]3O[C@H](CN)[C@@H](O)[C@H](O)[C@H]3N)O[C@@H]2CSCCNC(=O)CCCc2ccc3ccc4cccc5ccc2c3c45)[C@H](N)[C@@H](O)[C@@H]1O", "reading unit": "%", "Activity": 82}
{"cpd smiles": "NC[C@@H]1O[C@H](O[C@H]2[C@@H](O)[C@H](O[C@@H]3[C@@H](O)[C@H](N)C[C@H](N)[C@H]3O[C@H]3O[C@H](CN)[C@@H](O)[C@H](O)[C@H]3N)O[C@@H]2CSCCNC(=O)Cc2ccc3ccc4cccc5ccc2c3c45)[C@H](N)[C@@H](O)[C@@H]1O", "reading unit": "%", "Activity": 81}
